System: L. acidophilus NCFM
Assay: RNA-seq transcriptional analysis of L. acidophilus NCFM growing on plant glycosides
Type: cell-based, Lactobacillus acidophilus
Details: gene LBA1675 (Hypothetical protein)
# Log2 differential normalized TPM ratio compared to glucose per record follows
REPORTED ENDPOINT: Log2 differential normalized TPM ratio compared to glucose

| COMPOUND | TEST RESULT |
| --- | --- |
| N#C[C@H](O[C@@H]1O[C@H](CO[C@@H]2O[C@H](CO)[C@@H](O)[C@H](O)[C@H]2O)[C@@H](O)[C@H](O)[C@H]1O)c1ccccc1 | 2.1 |
| OC[C@H]1O[C@@H](O[C@H]2[C@H](O)[C@@H](O)[C@@H](O)O[C@@H]2CO)[C@H](O)[C@@H](O)[C@H]1O | 1.4 |
| OCc1ccccc1O[C@@H]1O[C@H](CO)[C@@H](O)[C@H](O)[C@H]1O | 2 |
| O=c1ccc2cc(O[C@@H]3O[C@H](CO)[C@@H](O)[C@H](O)[C@H]3O)c(O)cc2o1 | 2.2 |

----------
Tested on: L. acidophilus NCFM
Assay: RNA-seq transcriptional analysis of L. acidophilus NCFM growing on plant glycosides
Type: cell-based, Lactobacillus acidophilus
Details: LBA1705 PTS system IIBC component, COG G
REPORTED ENDPOINT: Transcripts per million (rpm)

| COMPOUND | TARGET ENTITY | REPORTED ENDPOINT | TEST RESULT |
| --- | --- | --- | --- |
| OC[C@H]1O[C@@H](O[C@H]2[C@H](O)[C@@H](O)[C@@H](O)O[C@@H]2CO)[C@H](O)[C@@H](O)[C@H]1O | L. acidophilus NCFM | Transcripts per million (rpm) | 6.1 |
| OCc1ccccc1O[C@@H]1O[C@H](CO)[C@@H](O)[C@H](O)[C@H]1O | L. acidophilus NCFM | Transcripts per million (rpm) | 8.4 |
| N#C[C@H](O[C@@H]1O[C@H](CO[C@@H]2O[C@H](CO)[C@@H](O)[C@H](O)[C@H]2O)[C@@H](O)[C@H](O)[C@H]1O)c1ccccc1 | L. acidophilus NCFM | Transcripts per million (rpm) | 18.5 |
| O=c1ccc2cc(O[C@@H]3O[C@H](CO)[C@@H](O)[C@H](O)[C@H]3O)c(O)cc2o1 | L. acidophilus NCFM | Transcripts per million (rpm) | 15.9 |

----------
// Log2 differential normalized TPM ratio compared to glucose lookup, one value per entry
System: L. acidophilus NCFM
Experiment: RNA-seq transcriptional analysis of L. acidophilus NCFM growing on plant glycosides
Format: cell-based, Lactobacillus acidophilus
Conditions: gene LBA1796 (ABC exporter)
REPORTED ENDPOINT: Log2 differential normalized TPM ratio compared to glucose

| COMPOUND | TEST RESULT |
| --- | --- |
| OCc1ccccc1O[C@@H]1O[C@H](CO)[C@@H](O)[C@H](O)[C@H]1O | 1 |
| O=c1ccc2cc(O[C@@H]3O[C@H](CO)[C@@H](O)[C@H](O)[C@H]3O)c(O)cc2o1 | 1.9 |
| OC[C@H]1O[C@@H](O[C@H]2[C@H](O)[C@@H](O)[C@@H](O)O[C@@H]2CO)[C@H](O)[C@@H](O)[C@H]1O | 2.5 |
| N#C[C@H](O[C@@H]1O[C@H](CO[C@@H]2O[C@H](CO)[C@@H](O)[C@H](O)[C@H]2O)[C@@H](O)[C@H](O)[C@H]1O)c1ccccc1 | 2.4 |
